Values compiled from ChEMBL document CHEMBL4177556.

Species on record: Homo sapiens
Assay: Selectivity ratio of Ki for human 5-HT1A receptor to Ki for human 5-HT7b receptor
Would you mind labelling by Ratio Ki? At or over 30 is condition met, under is condition not met.

[[record]]
compound = "O=S(=O)(NC1CCN(CCCOc2ccccc2-c2ccccc2)CC1)c1ccc(F)cc1"
answer_label = "condition met"


Alright, here's another compound for you.
Asked: Quick check, Ratio Ki >= 30? CC(C)c1ccccc1OCC(C)N1CCC(NS(=O)(=O)c2cccc(F)c2)CC1 (configuration not stated)
Given back: condition not met

###

Target sequence: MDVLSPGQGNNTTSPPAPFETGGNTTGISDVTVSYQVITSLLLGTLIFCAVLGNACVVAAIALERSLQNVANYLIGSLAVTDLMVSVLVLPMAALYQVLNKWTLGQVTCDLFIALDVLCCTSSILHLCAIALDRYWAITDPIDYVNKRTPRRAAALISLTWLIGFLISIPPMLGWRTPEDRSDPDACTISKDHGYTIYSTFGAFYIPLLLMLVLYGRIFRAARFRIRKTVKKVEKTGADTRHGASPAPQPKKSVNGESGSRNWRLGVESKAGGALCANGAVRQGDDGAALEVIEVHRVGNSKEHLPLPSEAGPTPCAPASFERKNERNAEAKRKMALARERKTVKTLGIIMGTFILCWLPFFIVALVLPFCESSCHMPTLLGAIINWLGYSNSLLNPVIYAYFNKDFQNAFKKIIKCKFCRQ
Test readout: pKi
Please note pKi is a logarithmic value: minus log10 of concentration in mol/L. Answer with that number alone.

Solved entries:
[[record]]
compound = "CC(C)c1ccccc1OCC(O)CN1CCC(NS(=O)(=O)c2cccc(F)c2)CC1 (configuration not stated)"
test_readout = "pKi"
observed_result = 6.13

[[record]]
compound = "CC(C)c1ccccc1OCC(C)N1CCC(NS(=O)(=O)c2cccc(F)c2)CC1 (configuration not stated)"
test_readout = "pKi"
observed_result = 6.02

[[record]]
compound = "O=S(=O)(NC1CCN(CCCOc2ccccc2-c2ccccc2)CC1)c1cccc(Cl)c1"
test_readout = "pKi"
observed_result = 5.79

[[record]]
compound = "O=S(=O)(NC1CCN(CC(O)COc2ccccc2-c2ccccc2)CC1)c1ccc(F)cc1 (configuration not stated)"
test_readout = "pKi"
observed_result = 5.88

[[record]]
compound = "O=S(=O)(NC1CCN(CCCOc2ccccc2-c2ccccc2)CC1)c1ccc(F)cc1"
test_readout = "pKi"
observed_result = 5.74

[[record]]
compound = "CC(C)c1ccccc1OCC(C)N1CCC(NS(=O)(=O)c2ccc(F)cc2)CC1 (configuration not stated)"
test_readout = "pKi"
observed_result = 5.93


Then there is this compound:
Asked: Returns the measured pKi for the input compound. Input: `CC(C)c1ccccc1OCCCN1CCC(NS(=O)(=O)c2ccc(F)cc2)CC1`
Given back: 5.68

###

Target: 5-hydroxytryptamine receptor 6 (Homo sapiens)
Sequence (P50406 whole entry): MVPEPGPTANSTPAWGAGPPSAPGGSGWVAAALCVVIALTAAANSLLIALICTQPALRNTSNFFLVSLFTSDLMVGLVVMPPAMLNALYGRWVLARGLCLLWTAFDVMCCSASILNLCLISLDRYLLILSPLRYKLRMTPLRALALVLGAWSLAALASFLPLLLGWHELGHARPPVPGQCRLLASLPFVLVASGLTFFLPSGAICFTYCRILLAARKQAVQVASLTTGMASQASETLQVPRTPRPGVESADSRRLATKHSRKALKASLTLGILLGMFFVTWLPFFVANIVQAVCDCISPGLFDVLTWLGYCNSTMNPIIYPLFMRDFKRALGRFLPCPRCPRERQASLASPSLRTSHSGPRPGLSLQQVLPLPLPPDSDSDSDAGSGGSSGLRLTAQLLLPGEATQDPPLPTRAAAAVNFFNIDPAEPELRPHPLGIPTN
Test readout: pKi
Would you please state pKi, meaning minus log10 of the concentration in mol/L, as a bare number?

Asked: Form: Entry = `CC(C)c1ccccc1OCCCN1CCC(NS(=O)(=O)c2ccc(F)cc2)CC1` | System = 5-hydroxytryptamine receptor 6 (Homo sapiens) | pKi = ____
Given back: 6.57

###

Molecular target: UniProtKB P28223
Sequence (P28223 whole entry): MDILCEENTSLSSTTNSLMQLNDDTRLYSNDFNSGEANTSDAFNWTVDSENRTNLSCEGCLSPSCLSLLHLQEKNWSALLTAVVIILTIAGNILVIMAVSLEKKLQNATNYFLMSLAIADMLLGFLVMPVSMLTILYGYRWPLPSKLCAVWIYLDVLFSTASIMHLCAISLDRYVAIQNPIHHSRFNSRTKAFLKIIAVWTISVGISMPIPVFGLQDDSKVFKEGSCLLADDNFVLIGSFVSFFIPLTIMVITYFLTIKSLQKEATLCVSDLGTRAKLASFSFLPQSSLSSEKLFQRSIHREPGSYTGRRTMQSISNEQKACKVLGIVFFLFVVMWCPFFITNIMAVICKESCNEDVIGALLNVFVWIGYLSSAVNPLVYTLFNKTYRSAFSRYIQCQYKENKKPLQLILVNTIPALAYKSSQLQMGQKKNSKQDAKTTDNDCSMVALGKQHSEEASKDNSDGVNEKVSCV
Test readout: Ki (nM)
// return numeric value only (unit: nM, not printed)

Asked: # Ki lookup, item `CC(C)c1ccccc1OCCCN1CCC(NS(=O)(=O)c2ccc(F)cc2)CC1`
Given back: 1350

###

Readings of pKi for the listed compounds
Molecular target: 5-hydroxytryptamine receptor 7 (Homo sapiens)
Sequence (P34969 whole entry): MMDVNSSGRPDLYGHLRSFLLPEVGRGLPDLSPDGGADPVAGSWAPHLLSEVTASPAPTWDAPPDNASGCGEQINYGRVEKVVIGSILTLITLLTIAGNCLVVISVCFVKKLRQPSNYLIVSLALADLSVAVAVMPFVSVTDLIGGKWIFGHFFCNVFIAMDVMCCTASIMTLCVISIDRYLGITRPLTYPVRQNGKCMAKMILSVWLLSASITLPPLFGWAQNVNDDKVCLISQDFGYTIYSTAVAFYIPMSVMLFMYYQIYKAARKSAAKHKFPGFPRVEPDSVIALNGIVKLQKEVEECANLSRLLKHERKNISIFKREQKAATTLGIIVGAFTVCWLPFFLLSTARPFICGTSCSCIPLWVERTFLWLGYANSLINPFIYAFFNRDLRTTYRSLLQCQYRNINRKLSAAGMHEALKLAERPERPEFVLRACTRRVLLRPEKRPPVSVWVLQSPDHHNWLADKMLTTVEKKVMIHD
Experiment: Displacement of [3H]-5-CT from human 5-HT7b receptor expressed in HEK293 cells after 1 hr by microbeta counting analysis
Type: cell-based
Notebook: values listed as pKi are -log10 of the concentration (mol/L).

[[record]]
compound = "O=S(=O)(NC1CCN(CCCOc2ccccc2-c2ccccc2)CC1)c1ccc(F)cc1"
observed_result = 7.24

[[record]]
compound = "CC(C)c1ccccc1OCCCN1CCC(NS(=O)(=O)c2cccc(F)c2)CC1"
observed_result = 7.28

[[record]]
compound = "CC(COc1ccccc1-c1ccccc1)N1CCC(NS(=O)(=O)c2ccc(F)cc2)CC1 (stereo not given)"
observed_result = 7.47

[[record]]
compound = "CC(COc1ccccc1-c1ccccc1)N1CCC(NS(=O)(=O)c2cccc(Cl)c2)CC1 (stereo not given)"
observed_result = 7.49


Consider the additional compound presented here.
Asked: Kindly state the measured pKi obtained for `CC(C)c1ccccc1OCCCN1CCC(NS(=O)(=O)c2ccc(F)cc2)CC1` with 5-hydroxytryptamine receptor 7 (Homo sapiens).
Given back: 7.49

###

Species on record: Homo sapiens
Assay: Selectivity ratio of Ki for human 5-HT1A receptor to Ki for human 5-HT7b receptor
Lab note: anything with Ratio Ki below 20 is marked true; values at 20 or higher are marked false.

Would you please look over these solved cases?
[[record]]
compound = "O=S(=O)(NC1CCN(CC(O)COc2ccccc2-c2ccccc2)CC1)c1ccc(F)cc1 (stereo not given)"
answer_label = "false"

[[record]]
compound = "CC(COc1ccccc1-c1ccccc1)N1CCC(NS(=O)(=O)c2cccc(Cl)c2)CC1 (stereo not given)"
answer_label = "false"

[[record]]
compound = "CC(COc1ccccc1-c1ccccc1)N1CCC(NS(=O)(=O)c2ccc(F)cc2)CC1 (stereo not given)"
answer_label = "true"

[[record]]
compound = "O=S(=O)(NC1CCN(CC(O)COc2ccccc2-c2ccccc2)CC1)c1cccc(Cl)c1 (stereo not given)"
answer_label = "false"

[[record]]
compound = "CC(C)c1ccccc1OCCCN1CCC(NS(=O)(=O)c2ccc(F)cc2)CC1"
answer_label = "false"

[[record]]
compound = "CC(C)c1ccccc1OCC(O)CN1CCC(NS(=O)(=O)c2cccc(F)c2)CC1 (stereo not given)"
answer_label = "true"

[[record]]
compound = "O=S(=O)(NC1CCN(CCCOc2ccccc2-c2ccccc2)CC1)c1cccc(Cl)c1"
answer_label = "false"

[[record]]
compound = "CC(C)c1ccccc1OCCCN1CCC(NS(=O)(=O)c2cccc(F)c2)CC1"
answer_label = "false"

[[record]]
compound = "CC(C)c1ccccc1OCC(C)N1CCC(NS(=O)(=O)c2ccc(F)cc2)CC1 (stereo not given)"
answer_label = "true"


Asked: is_below(Ratio Ki, 20) for CC(C)c1ccccc1OCC(O)CN1CCC(NS(=O)(=O)c2ccc(F)cc2)CC1 (stereo not given) ?
Given back: true
